src = patent US8299048B2

molecular target: human GR (Homo sapiens, UniProt P04150); assay: Transrepression Assay (GITAR), TNFα-β-lactamase reporter in U937 cells; assay type: cell-based; design: U937 cells contain an endogenous glucocorticoid receptor (GR); endogenous in cells; host or cells: U937 cells stably transfected with the TNF-alpha promoter/beta-lactamase reporter; settings: U-937, U937 cells; maximum activity; read-out: Transrepression U937 Cells GITAR Emax
Sequence (P04150 whole entry): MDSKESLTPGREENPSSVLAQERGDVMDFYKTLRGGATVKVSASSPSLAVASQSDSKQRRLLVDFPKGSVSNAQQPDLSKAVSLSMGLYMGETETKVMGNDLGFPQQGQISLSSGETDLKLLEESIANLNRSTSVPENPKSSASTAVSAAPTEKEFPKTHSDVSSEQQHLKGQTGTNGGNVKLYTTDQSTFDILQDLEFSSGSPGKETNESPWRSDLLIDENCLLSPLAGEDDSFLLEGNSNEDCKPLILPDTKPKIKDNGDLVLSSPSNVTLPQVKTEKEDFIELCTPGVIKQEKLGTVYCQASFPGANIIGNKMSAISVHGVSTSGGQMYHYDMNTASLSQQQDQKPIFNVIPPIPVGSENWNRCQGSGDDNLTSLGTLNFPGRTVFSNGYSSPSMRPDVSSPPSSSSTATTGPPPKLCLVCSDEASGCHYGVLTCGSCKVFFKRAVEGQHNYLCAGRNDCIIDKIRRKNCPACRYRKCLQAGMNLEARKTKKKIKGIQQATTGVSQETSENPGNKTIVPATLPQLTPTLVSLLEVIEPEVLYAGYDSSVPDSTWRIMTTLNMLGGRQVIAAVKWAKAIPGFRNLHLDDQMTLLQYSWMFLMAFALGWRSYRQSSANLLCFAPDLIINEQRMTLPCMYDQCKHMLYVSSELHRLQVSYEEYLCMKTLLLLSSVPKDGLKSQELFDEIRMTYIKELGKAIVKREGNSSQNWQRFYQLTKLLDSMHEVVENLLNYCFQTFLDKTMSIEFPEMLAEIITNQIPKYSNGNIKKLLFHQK

# Substance smiles, Readout units, Emax
measured = [
    ("Cc1nn(C)c(Cl)c1S(=O)(=O)N(CCO)C[C@H]1CCC2=Cc3c(cnn3-c3ccc(F)cc3)C[C@@]21C", "%", 59.5),
    ("C[C@]12Cc3cnn(-c4ccc(F)cc4)c3C=C1CC[C@@H]2CN(CCc1ccccn1)S(=O)(=O)Cc1ccccc1C(F)(F)F", "%", 52.4),
    ("C[C@]12Cc3cnn(-c4ccc(F)cc4)c3C=C1CC[C@@H]2CN(CC#N)S(=O)(=O)c1ccccc1Cl", "%", 61.3),
    ("Cc1cc(S(=O)(=O)N(CCO)C[C@H]2CCC3=Cc4c(cnn4-c4ccc(F)cc4)C[C@@]32C)c(C)o1", "%", 24.5),
]

====

biological target: UniProtKB P04150; test: Transrepression Assay (GITAR), TNFα-β-lactamase reporter in U937 cells; assay type: cell-based; design: U937 cells contain an endogenous glucocorticoid receptor (GR); endogenous in cells; host or cells: U937 cells stably transfected with the TNF-alpha promoter/beta-lactamase reporter; settings: U-937, U937 cells; maximum activity; read-out: Transrepression U937 Cells GITAR Emax

# Substance smiles, Emax
records = [
    ("COc1ccccc1CCN(C[C@H]1CCC2=Cc3c(cnn3-c3ccc(F)cc3)C[C@@]21C)S(=O)(=O)Cc1cccnc1", "55.3%"),
    ("C[C@]12Cc3cnn(-c4ccc(F)cc4)c3C=C1CC[C@@H]2CN(CCc1ccccc1F)S(=O)(=O)c1ccccc1F", "80.6%"),
    ("Cc1noc(C)c1S(=O)(=O)N(CCO)C[C@H]1CCC2=Cc3c(cnn3-c3ccc(F)cc3)C[C@@]21C", "82.3%"),
    ("C[C@]12Cc3cnn(-c4ccc(F)cc4)c3C=C1CC[C@@H]2CN(CCO)S(=O)(=O)c1ccc(F)c(F)c1", "80.9%"),
]

====

Molecular target: human GR (Homo sapiens, UniProt P04150)
Experiment: Transrepression Assay (GITAR), TNFα-β-lactamase reporter in U937 cells
Assay type: cell-based
Parameters: U937 cells contain an endogenous glucocorticoid receptor (GR); endogenous in cells; host or cells: U937 cells stably transfected with the TNF-alpha promoter/beta-lactamase reporter
Conditions: U-937, U937 cells; maximum activity; read-out: Transrepression U937 Cells GITAR Emax
Excerpt: This assay assesses the ability of test compounds to control transcription from the TNFα-β-lactamase reporter gene in U937 cells, a human myelomonocytic leukemia cell line that naturally expresses the human GR. The assay measures compound dependent-repression of the TNFa promoter linked to a reporter gene. The human U937 cells that had been stablely transfected with the TNF-α promoter driving β-lactamase are used for this assay. U937 cells contain an endogenous glucocorticoid receptor (GR). […]
# Emax listing for each entry below
Measured metric: Emax

# Compound, Result
rows = [
    ("C[C@]12Cc3cnn(-c4ccc(F)cc4)c3C=C1CC[C@@H]2CN(CCc1ccccc1F)S(=O)(=O)c1ccccc1Cl [Example 100]", "79.1%"),
    ("C[C@]12Cc3cnn(-c4ccc(F)cc4)c3C=C1CC[C@@H]2CN(CC1(O)CC1)S(=O)(=O)c1ccccc1F [Example 200]", "85.9%"),
    ("C[C@]12Cc3cnn(-c4ccc(F)cc4)c3C=C1CC[C@@H]2CN(CC1CCCO1)S(=O)(=O)c1ccc(C(N)=O)cc1 (stereo partly drawn) [Example 191]", "37.2%"),
    ("CC(CN(C[C@H]1CCC2=Cc3c(cnn3-c3ccc(F)cc3)C[C@@]21C)S(=O)(=O)CC(F)(F)F)c1cccnc1 (stereo partly drawn) [Example 146]", "93.3%"),
    ("C[C@]12Cc3cnn(-c4ccc(F)cc4)c3C=C1CC[C@@H]2CN(CCO)S(=O)(=O)c1cc(Cl)c(Cl)s1 [Example 58]", "28.8%"),
    ("COc1ccccc1CCN(C[C@H]1CCC2=Cc3c(cnn3-c3ccc(F)cc3)C[C@@]21C)S(=O)(=O)CC(F)(F)F [Example 120]", "91.5%"),
    ("Cc1oncc1S(=O)(=O)N(CCO)C[C@H]1CCC2=Cc3c(cnn3-c3ccc(F)cc3)C[C@@]21C [Example 56]", "86.9%"),
    ("C[C@]12Cc3cnn(-c4ccc(F)cc4)c3C=C1CC[C@@H]2CN(CCC#N)S(=O)(=O)c1ccccc1F [Example 16]", "84.5%"),
    ("Cc1noc(C)c1S(=O)(=O)N(CCc1ccccc1O)C[C@H]1CCC2=Cc3c(cnn3-c3ccc(F)cc3)C[C@@]21C [Example 123]", "90.8%"),
    ("C[C@]12Cc3cnn(-c4ccc(F)cc4)c3C=C1CC[C@@H]2CN(CCc1ccccc1F)S(=O)(=O)Cc1ccccc1C(N)=O [Example 190]", "77.4%"),
    ("C[C@]12Cc3cnn(-c4ccc(F)cc4)c3C=C1CC[C@@H]2CN(CCc1ccccc1F)S(=O)(=O)Cc1cccc(Cl)c1 [Example 106]", "85.3%"),
    ("C[C@]12Cc3cnn(-c4ccc(F)cc4)c3C=C1CC[C@@H]2CN(CC1CC1)S(=O)(=O)c1ccccc1C(F)(F)F [Example 4]", "53.1%"),
    ("C[C@]12Cc3cnn(-c4ccccc4)c3C=C1CC[C@@H]2CN(CCc1ccccn1)S(=O)(=O)Cc1cccnc1 [Example 140]", "37%"),
    ("C[C@]12Cc3cnn(-c4ccc(F)cc4)c3C=C1CC[C@@H]2CN(CCO)S(=O)(=O)c1ccc(F)cc1F [Example 82]", "90.2%"),
    ("Cc1nn(C)c(Cl)c1S(=O)(=O)N(CC1CC1)C[C@H]1CCC2=Cc3c(cnn3-c3ccc(F)cc3)C[C@@]21C [Example 7]", "56%"),
    ("C[C@]12Cc3cnn(-c4ccc(F)cc4)c3C=C1CC[C@@H]2CN(CCO)S(=O)(=O)c1cccc(C#N)c1 [Example 68]", "32.9%"),
    ("COC(=O)c1ccccc1CS(=O)(=O)N(CC(O)C(F)(F)F)C[C@H]1CCC2=Cc3c(cnn3-c3ccc(F)cc3)C[C@@]21C (stereo partly drawn) [Example 162]", "90.8%"),
    ("COCCN(C[C@H]1CCC2=Cc3c(cnn3-c3ccc(F)cc3)C[C@@]21C)S(=O)(=O)c1cn(C)nc1C(F)(F)F [Example 172]", "42.4%"),
    ("Cc1nn(C)c(Cl)c1S(=O)(=O)N(CC#N)C[C@H]1CCC2=Cc3c(cnn3-c3ccc(F)cc3)C[C@@]21C [Example 52]", "54.4%"),
    ("COc1ccc(CCN(C[C@H]2CCC3=Cc4c(cnn4-c4ccc(F)cc4)C[C@@]32C)S(=O)(=O)CC(F)(F)F)cc1 [Example 127]", "83%"),
    ("C[C@]12Cc3cnn(-c4ccc(F)cc4)c3C=C1CC[C@@H]2CN(CC1(O)CC1)S(=O)(=O)CC(F)(F)F [Example 135]", "87.9%"),
    ("CCS(=O)(=O)N(CCOC)C[C@H]1CCC2=Cc3c(cnn3-c3ccc(F)cc3)C[C@@]21C [Example 171]", "88%"),
    ("C[C@]12Cc3cnn(-c4ccc(F)cc4)c3C=C1CC[C@@H]2CN(CCO)S(=O)(=O)c1ccccc1C(F)(F)F [Example 70]", "40.8%"),
    ("C[C@]12Cc3cnn(-c4ccc(F)cc4)c3C=C1CC[C@@H]2CN(Cc1cccnn1)S(=O)(=O)CC(F)(F)F [Example 132]", "74%"),
    ("C[C@]12Cc3cnn(-c4ccc(F)cc4)c3C=C1CC[C@@H]2CN(CC#N)S(=O)(=O)c1ccc(F)c(F)c1 [Example 25]", "89.4%"),
    ("C[C@]12Cc3cnn(-c4ccc(F)cc4)c3C=C1CC[C@@H]2CN(CC1CC1)S(=O)(=O)/C=C/c1ccccc1 [Example 13]", "16.1%"),
    ("CNC(=O)Nc1ccc(S(=O)(=O)N(CCO)C[C@H]2CCC3=Cc4c(cnn4-c4ccc(F)cc4)C[C@@]32C)c(Cl)c1 [Example 76]", "13%"),
]
